# Test system: Ps. aeruginosa NCTC 10490
# Experiment notes: Antibacterial activity (minimum effective inhibitory concentration)
# Format: cell-based
# Setup conditions: Pseudomonas aeruginosa, NCTC10490, read-out: minimum effective inhibitory concentrations

# Compound, System name, MIC [µg/mL]
records = [
    ("Nc1ccc[n+](CC2=C(C(=O)[O-])N3C(=O)C(NC(=O)C(=NOC4CC(=O)N4)c4csc(N)n4)C3SC2)c1 (stereo not shown)", "Ps. aeruginosa NCTC 10490", 0.78),
    ("Nc1nc(C(=NOC2CC(=O)N2)C(=O)NC2C(=O)N3C(C(=O)O)=C(CSc4nnnn4CCO)CSC23)cs1 (stereo not shown)", "Ps. aeruginosa NCTC 10490", 0.1),
    ("Cn1nnnc1SCC1=C(C(=O)O)N2C(=O)C(NC(=O)C(=NOC3CC(=O)N3)c3csc(N)n3)C2SC1 (stereo not shown)", "Ps. aeruginosa NCTC 10490", 0.78),
    ("C[N+]1(CC2=C(C(=O)[O-])N3C(=O)C(NC(=O)C(=NOC4CC(=O)N4)c4csc(N)n4)C3SC2)CCCC1 (stereo not shown)", "Ps. aeruginosa NCTC 10490", 0.39),
]

----------
# Test system: Staph. epidermidis IIb 866

# Molecule, MIC (µg/mL)
measured = [
    ("Nc1nc(C(=NOC2CC(=O)N2)C(=O)NC2C(=O)N3C(C(=O)O)=C(CSc4nnnn4CCO)CSC23)cs1 (stereo not shown) [Example 2]", 0.78),
    ("Nc1ccc[n+](CC2=C(C(=O)[O-])N3C(=O)C(NC(=O)C(=NOC4CC(=O)N4)c4csc(N)n4)C3SC2)c1 (stereo not shown) [Example 4]", 0.2),
    ("C[N+]1(CC2=C(C(=O)[O-])N3C(=O)C(NC(=O)C(=NOC4CC(=O)N4)c4csc(N)n4)C3SC2)CCCC1 (stereo not shown) [Example 7]", 0.2),
    ("Cn1nnnc1SCC1=C(C(=O)O)N2C(=O)C(NC(=O)C(=NOC3CC(=O)N3)c3csc(N)n3)C2SC1 (stereo not shown) [Example 1]", 0.2),
]

----------
So I've got MIC readings for Kleb. pneumoniae ATCC 10031, take a look.
Measure: MIC (µg/mL)

# Molecule, System name, Result unit, Recorded value
rows = [
    ("Nc1nc(C(=NOC2CC(=O)N2)C(=O)NC2C(=O)N3C(C(=O)O)=C(CSc4nnnn4CCO)CSC23)cs1 (stereo not shown)", "Kleb. pneumoniae ATCC 10031", "µg/mL", 0.05),
    ("C[N+]1(CC2=C(C(=O)[O-])N3C(=O)C(NC(=O)C(=NOC4CC(=O)N4)c4csc(N)n4)C3SC2)CCCC1 (stereo not shown)", "Kleb. pneumoniae ATCC 10031", "µg/mL", 0.05),
    ("Cn1nnnc1SCC1=C(C(=O)O)N2C(=O)C(NC(=O)C(=NOC3CC(=O)N3)c3csc(N)n3)C2SC1 (stereo not shown)", "Kleb. pneumoniae ATCC 10031", "µg/mL", 0.025),
    ("Nc1ccc[n+](CC2=C(C(=O)[O-])N3C(=O)C(NC(=O)C(=NOC4CC(=O)N4)c4csc(N)n4)C3SC2)c1 (stereo not shown)", "Kleb. pneumoniae ATCC 10031", "µg/mL", 0.1),
]
